Biological target: Autotaxin (Homo sapiens)
Assay: Inhibition of glycosylated human ATX using LPC 16:0 as substrate after 30 mins by luminescence assay
Kindly state IC50 for each of the entries shown.

Challenge: What value of measured IC50 is listed for `CCc1nc2ccc(-c3cccnc3)cn2c1N(C)c1nc(-c2ccc(F)cc2)cs1` ?
Response given: > 10 µM

Challenge: What value of measured IC50 is listed for `CCc1nc2ccc(C(=O)NCCO)cn2c1N(C)c1nc(-c2ccc(Cl)cc2)cs1` ?
Response given: > 10 µM

Challenge: What value of measured IC50 is listed for `CCc1nc2ccc(C3CCN(S(C)(=O)=O)CC3)cn2c1N(C)c1nc(-c2ccc(F)cc2)c(C(=O)O)s1` ?
Response given: > 10 µM
